Target: hMrgpMRGPRX2 (Homo sapiens, UniProt Q96LB1)
Construct: expressed in transfected cells
Sequence (Q96LB1 1-330): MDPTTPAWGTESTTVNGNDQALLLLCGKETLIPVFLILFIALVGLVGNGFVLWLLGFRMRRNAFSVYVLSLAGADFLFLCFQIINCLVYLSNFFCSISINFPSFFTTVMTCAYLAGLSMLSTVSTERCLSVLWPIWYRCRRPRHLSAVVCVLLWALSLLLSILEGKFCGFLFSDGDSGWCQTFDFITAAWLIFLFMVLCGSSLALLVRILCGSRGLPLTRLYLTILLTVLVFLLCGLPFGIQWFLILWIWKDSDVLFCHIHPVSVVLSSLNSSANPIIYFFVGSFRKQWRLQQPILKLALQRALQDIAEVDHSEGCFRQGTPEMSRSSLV
Experiment: FLIPR intracellular calcium mobilization, antagonist activity in recombinant hMrgpMRGPRX2 expressing cells
Assay type: cell-based
Conditions: read-out: Human MrgprX2 Antagonist pIC50 (converted)
Field 'label' (enum: Satisfied / Not satisfied). Set to Satisfied when IC50 is strictly under 0.7 µM; else Not satisfied.

* CC(C)C(=O)Nc1ccc(-c2ccc(F)cc2)cn1 | Not satisfied
* COc1cccc(-c2ccc(NC(=O)C(C)C)nc2)c1 | Satisfied
* CC1(C)CC1C(=O)Nc1ccc(-c2cc(F)ccc2F)cn1 (stereo not shown) | Satisfied
* CN(C[C@@](C)(O)C(F)(F)F)C(=O)Nc1ccc(Oc2cc(F)cc(F)c2)cn1 | Satisfied
* O=C(CC1CC1)Nc1ccc(Oc2ccc(F)c(F)c2)cn1 | Satisfied

With those in mind, consider the next compound.
Consider CC1(C)CC1C(=O)Nc1cnc(-c2cccc(F)c2F)cn1 (stereo not shown) . Does its IC50 lie strictly below 0.7 µM?
Not satisfied

====

target: hMrgpMRGPRX2 (Homo sapiens, UniProt Q96LB1); construct: expressed in transfected cells; experiment: FLIPR intracellular calcium mobilization, antagonist activity in recombinant hMrgpMRGPRX2 expressing cells; format: cell-based; conditions: read-out: Human MrgprX2 Antagonist pIC50 (converted)
value-kind: IC50
Units required after the number.

• CC1(C)CC1C(=O)Nc1cnc(-c2cc(F)cc(F)c2)cn1 (stereo not drawn) [Compound E228] = 95.5 nM
• Cc1cnc(NC(=O)N(C)C[C@@H](O)C(F)(F)F)cc1Oc1ccc(F)c(F)c1 = 245 nM
• O=C(Nc1ccc(Oc2ccc(F)c(F)c2)cn1)C1CCOC1 (stereo not drawn) = 6310 nM

Return the recorded IC50 value; entry: `Cn1cc(-c2ccc(NC(=O)C3C(C)(C)C3(C)C)nc2)cn1`
93.3 nM

Return the recorded IC50 value; entry: CC(O)CN(CC(F)(F)F)C(=O)Nc1ccc(Oc2ccc(F)c(F)c2)cn1 (stereo not drawn)
1200 nM

Return the recorded IC50 value; entry: `CC(C)C(=O)Nc1cc(Oc2cc(F)cc(F)c2)ccn1`
200 nM

Return the recorded IC50 value; entry: `CCN(C[C@@H](O)C(F)(F)F)C(=O)Nc1cc(Oc2ccccc2C#N)ccn1`
17.8 nM

Return the recorded IC50 value; entry: CC1(C)CC1C(=O)Nc1cnc(-c2cc(F)cc(C#N)c2)cn1 (stereo not drawn)
288 nM

Return the recorded IC50 value; entry: O=C(Nc1ccc(Oc2ccc(F)c(F)c2)cn1)C1CC12CC2 (stereo not drawn)
12.6 nM
